target: Mac-1/ICAM-1 (Homo sapiens, UniProt P05107+P11215); assay: Mac-1/ICAM-1 ELISA; settings: Mac-1 receptor coated plates, 5dICAM-Fc binding
Sequence (P05107 23-769, other chains not shown): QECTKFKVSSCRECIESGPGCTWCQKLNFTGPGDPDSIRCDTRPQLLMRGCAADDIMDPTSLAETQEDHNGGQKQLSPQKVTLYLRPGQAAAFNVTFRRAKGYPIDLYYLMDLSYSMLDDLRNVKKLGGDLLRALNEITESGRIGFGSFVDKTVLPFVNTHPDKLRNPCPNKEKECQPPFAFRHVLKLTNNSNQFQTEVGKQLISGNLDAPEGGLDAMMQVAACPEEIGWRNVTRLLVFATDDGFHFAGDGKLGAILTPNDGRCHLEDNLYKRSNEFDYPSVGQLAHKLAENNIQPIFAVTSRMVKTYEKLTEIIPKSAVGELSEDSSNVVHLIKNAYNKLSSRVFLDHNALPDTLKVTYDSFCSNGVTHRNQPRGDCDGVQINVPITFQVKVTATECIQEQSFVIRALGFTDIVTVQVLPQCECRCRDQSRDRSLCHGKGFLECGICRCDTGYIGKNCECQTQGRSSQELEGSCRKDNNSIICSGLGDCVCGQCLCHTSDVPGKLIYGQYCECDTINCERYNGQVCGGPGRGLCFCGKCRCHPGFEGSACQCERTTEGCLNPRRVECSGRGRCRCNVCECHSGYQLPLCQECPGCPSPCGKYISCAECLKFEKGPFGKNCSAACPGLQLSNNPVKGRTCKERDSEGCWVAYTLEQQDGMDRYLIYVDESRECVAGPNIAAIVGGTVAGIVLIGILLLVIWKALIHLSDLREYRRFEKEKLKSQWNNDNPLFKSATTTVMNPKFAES
pIC50: −log10 of the molar value.
Recorded pIC50, one value per entry.

{"columns": ["compound", "pIC50"],
 "data": [
  ["Cc1cc(C(=O)NCc2cccc(O)c2)sc1C(=O)N[C@@H](CNC(=O)c1ccc2[nH]cnc2c1)C(=O)O [Example 42]", "< 5.52"],
  ["O=C(Cc1cccc(O)c1)Nc1ncc(C(=O)N[C@@H](CNC(=O)c2cccs2)C(=O)O)s1 [Example 3]", "< 5.52"],
  ["Cc1cc(C(=O)NCc2cccc(O)c2)sc1C(=O)N[C@@H](CNC(=O)c1cc(=O)[nH]c(=O)[nH]1)C(=O)O [Example 39]", "< 5.52"]
]}

Reference for the values: patent US8404859B2
